# System: CCRIS mutagenicity, Ames/micronucleus/aberration tests
# assay.comment: CCRIS mutagenicity studies
# cond: Test System: MOUSE LYMPHOMA; Strain/Indicator: L5178Y (TK+/TK-); Metabolic Activation: RAT, LIVER, S-9, AROCLOR 1254; Method: SUSPENSION/PLATE
Calls of active or inactive are those of the source. How the calls were made is not given here.
Outcomes: yes (1) = active, no (0) = inactive

molecule: COc1ccc(C=O)cc1
assigned.class: yes (1)

molecule: Nc1c(Br)cc([N+](=O)[O-])cc1[N+](=O)[O-]
assigned.class: yes (1)

molecule: CCCCCCCCCCCC(=O)OCCS(=O)(=O)O
assigned.class: no (0)

molecule: O=C(O)/C=C/c1ccc(O)c(O)c1
assigned.class: no (0)

molecule: CCOS(C)(=O)=O
assigned.class: yes (1)

molecule: N#C/C(N)=C(/N)C#N
assigned.class: yes (1)

molecule: CC1CCC(C(C)C)C(OC(=O)c2ccccc2N)C1 (stereo not drawn)
assigned.class: no (0)

molecule: Cc1cc(O)ccc1N
assigned.class: no (0)

Attribution: PubChem BioAssay AID1259407
